assay: Liver distribution after 8 mg/kg oral dose (liver vs plasma); format: in vivo, CD1 mice; settings: CD1, mouse, liver/plasma, oral, 8 mg/kg, 0.25 h, mean, read-out: Ratio (liver/plasma) Mean
OBSERVABLE: Kp at 0.25 h
Please reply with the number alone, leaving off any unit.

Data request: Need Kp at 0.25 h, item `COc1cc2c(cc1OCCCCCCC(=O)O)C[C@@H](C(C)C)n1cc(C(=O)O)c(=O)cc1-2`
Data returned: 23.8

----------
test: Pharmacokinetics after 8 mg/kg oral (PO) administration, plasma; type: in vivo, CD1 mice; conditions: CD1, mouse, plasma; 8 mg/kg oral, mean
OBSERVABLE: AUC(0-t) (ng·h/mL)
Reply with just the number (in ng·h/mL).

Data request: Which AUC(0-t) is reported for this molecule? COc1cc2c(cc1OCCCCCCC(=O)O)C[C@@H](C(C)C)n1cc(C(=O)O)c(=O)cc1-2 [Example 6]
Data returned: 34.7
